experiment: NCI Yeast Anticancer Drug Screen. Data for the rad14 strain (AID 159);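 note: 0% = growth of vehicle-treated control cultures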; conditions: S. cerevisiae rad14 strain growth inhibition; at 11.0 µM
This is part of a sample that, as a whole, favours compounds with a hit. Of some 79,000 tested, about 15% had one in any assay. Activity calls are given as the source filed them. Cut-off read from the data, not from the text of the source: active = growth inhibition above about 70%; inactive = the rest.
A correct response names exactly one class from true (1) for active, false (0) for inactive

Some entries whose results are on file:
1. CC(C)(C)[OH+][O-].[O-]c1ccc(Cl)cc1C=Nc1ccc(Cl)cc1[O-].[O]=[V]; false (0)
2. NCc1c(O)ccc2ccccc12; false (0)
3. CCOC(=O)C1=C(C)NC(C)=C(C(=O)OCC)C1c1ccccc1Cl; false (0)
4. O=S(=O)(c1cc(Cl)ccc1O)c1cc(Cl)ccc1O; true (1)
5. ClCCn1c(CCl)nc2ccc(Cl)cc21; false (0)

Please turn your attention to the following entry.
Exercise: Record request — test call for CC1CCC2(C(=O)O)CCC3(C)C(=CCC4C5(C)CC(O)C(O)C(C)(CO)C5C(O)CC43C)C2C1C (stereo not drawn)
Key: false (0)

----------
Can you tell me growth inhibition for the items I'm about to list?
assay: NCI Yeast Anticancer Drug Screen. Data for the wt2 strain (AID 169);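 note: 0% = growth of vehicle-treated yeast cultures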; conditions: S. cerevisiae wt2 strain growth inhibition; at 33.0 µM; hits give high values
The panel holds about 79,000 compounds, 15% with a hit somewhere; the sample as a whole holds those more often.
Numbers only, in %.

Worked set:
1. O=C(/C=N/O)Nc1cc(Cl)c(Cl)cc1Cl; -1
2. Cc1ccc(S(=O)(=O)Nc2ccc3c(c2)C(O)c2ccccc2-3)cc1 (configuration not stated); 75
3. S=C1SCN(CCc2ccccc2)CN1CCc1ccccc1; 63
4. COc1cc(N)ccc1Nc1c2ccccc2nc2ccccc12; 31
5. c1ccc2c(c1)Cn1c-2nc2ccccc21; 34
6. CN[C@@H]1C[C@H]2O[C@@](C)([C@@H]1OC)n1c3ccccc3c3c4c(c5c6ccccc6n2c5c31)C(=O)N[C@@H]4O; -21

Your task in this section: give growth inhibition for each listed record.
1. CC(=O)O[C@H]1C(=O)[C@@]2(C)[C@H]([C@H](OC(=O)c3ccccc3)[C@]3(O)C[C@H](OC(=O)[C@H](O)[C@@H](NC(=O)c4ccccc4)c4ccccc4)C(C)=C1C3(C)C)[C@]1(OC(C)=O)CO[C@@H]1C[C@@H]2O
2. Nc1nc(N)c2c(n1)CCC(S(=O)(=O)c1ccc3ccccc3c1)C2 (configuration not stated)
3. COc1cc(N(C)C)ccc1/C=C\c1ccnc2ccccc12
4. Cc1cccc(/C=N/NC(=S)N(C)CCc2ccccn2)n1

Key:
-4
5
16
98

----------
Can you tell me growth inhibition for the items I'm about to list?
experiment: NCI Yeast Anticancer Drug Screen. Data for the rad50EPP+ strain (AID 151);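 note: 0% = growth of vehicle-treated control cultures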; details: S. cerevisiae rad50 mutant strain, at 1.2 µM, hits give high values
Compounds without any hit were thinned out: in the full panel of roughly 79,000, 15% have a hit.
Numbers only, in %.

Worked set:
1) Cc1ccc(Nc2c3c(c(C#N)c4nc5ccccc5n24)CCCC3)cc1; 14
2) Cc1ccc(Nc2n[nH]c(=S)s2)cc1; -13
3) CC1OC(OC2CCCc3c(O)c4c(c(O)c32)C(=O)c2ccccc2C4=O)CC(N)C1O (stereo not given); 10
4) CN(C)CC1CCCc2ccccc2C1=O (stereo not given); 6
5) CN(C)c1ccc(/C=C/c2ccnc3ccccc23)cc1N; -7
6) Cc1cccc(/C=N/NC(=S)N(C)CCc2ccccn2)n1; -23
7) CCCCCCCCCCCc1nc(N)n[nH]1; -1
8) Nc1nc(N)c2c(n1)CCC(S(=O)(=O)c1ccc3ccccc3c1)C2 (stereo not given); 23
9) CC(=O)CC(=O)/C=C/c1cccs1; 7
10) N#Cc1sc2c(c1OC(=O)c1ccco1)c(=O)n(-c1ccccc1)c(=S)n2-c1ccccc1; 9

Your task in this section: give growth inhibition for each listed record.
1. S=c1[nH]c2c(Cl)c(Cl)c(Cl)c(Cl)c2[nH]1
2. C=C1N(C)c2ccc(Cl)cc2C1(C)C

Key:
1: 13; 2: -5

Your task in this section: give growth inhibition for each listed record.
1. Nc1cc(S(N)(=O)=O)ccc1SSc1ccc(S(N)(=O)=O)cc1N
2. Nc1nc2c(c(=O)[nH]1)NC(CCNc1ccc(C(=O)O)cc1)CN2 (stereo not given)
3. CN[C@@H]1C[C@H]2O[C@@](C)([C@@H]1OC)n1c3ccccc3c3c4c(c5c6ccccc6n2c5c31)C(=O)N[C@@H]4O
4. O=C1C=CC(=Nc2ccccc2)c2ccccc21
5. CCCCCCCCCCCCCCCCCCNC(=S)/N=C\C1=C(O)c2ccccc2C1=O
6. CCOC(=O)C(NC(=O)CC)(N1CCN(c2cc3c(cc2F)c(=O)c(C(=O)O)cn3C2CC2)CC1)C(F)(F)F (stereo not given)

Key:
1: -2; 2: -3; 3: -23; 4: 3; 5: -6; 6: -1
